Target: IKZF2 (Homo sapiens, UniProt Q96SW2+Q9UKS7)
Sequence (Q9UKS7 whole entry): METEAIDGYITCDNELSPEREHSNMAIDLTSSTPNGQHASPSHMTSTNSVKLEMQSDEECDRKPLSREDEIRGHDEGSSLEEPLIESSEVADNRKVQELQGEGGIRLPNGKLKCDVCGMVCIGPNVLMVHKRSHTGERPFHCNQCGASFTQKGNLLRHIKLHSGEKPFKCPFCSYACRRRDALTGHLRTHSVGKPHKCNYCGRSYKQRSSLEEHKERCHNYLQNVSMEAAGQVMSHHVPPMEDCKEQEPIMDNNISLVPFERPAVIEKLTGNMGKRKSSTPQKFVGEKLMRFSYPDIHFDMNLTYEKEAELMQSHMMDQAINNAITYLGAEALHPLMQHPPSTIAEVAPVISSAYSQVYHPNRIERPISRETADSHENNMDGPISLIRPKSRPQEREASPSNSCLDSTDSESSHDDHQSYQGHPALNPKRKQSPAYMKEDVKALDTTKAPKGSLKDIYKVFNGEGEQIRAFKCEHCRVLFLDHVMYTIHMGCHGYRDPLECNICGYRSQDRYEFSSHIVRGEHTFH
Sequence (Q96SW2 whole entry): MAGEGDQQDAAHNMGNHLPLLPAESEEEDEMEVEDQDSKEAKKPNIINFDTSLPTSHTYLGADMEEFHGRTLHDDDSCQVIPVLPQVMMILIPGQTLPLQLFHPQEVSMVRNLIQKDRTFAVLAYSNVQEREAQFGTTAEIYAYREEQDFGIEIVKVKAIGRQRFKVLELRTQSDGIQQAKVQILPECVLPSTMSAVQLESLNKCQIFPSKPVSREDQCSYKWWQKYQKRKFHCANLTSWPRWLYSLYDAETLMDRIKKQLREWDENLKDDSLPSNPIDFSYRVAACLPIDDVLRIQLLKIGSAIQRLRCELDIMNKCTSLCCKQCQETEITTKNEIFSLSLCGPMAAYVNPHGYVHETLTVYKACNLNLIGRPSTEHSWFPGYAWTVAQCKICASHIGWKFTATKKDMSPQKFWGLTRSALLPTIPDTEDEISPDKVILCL
Sequence (Q16531 whole entry partner): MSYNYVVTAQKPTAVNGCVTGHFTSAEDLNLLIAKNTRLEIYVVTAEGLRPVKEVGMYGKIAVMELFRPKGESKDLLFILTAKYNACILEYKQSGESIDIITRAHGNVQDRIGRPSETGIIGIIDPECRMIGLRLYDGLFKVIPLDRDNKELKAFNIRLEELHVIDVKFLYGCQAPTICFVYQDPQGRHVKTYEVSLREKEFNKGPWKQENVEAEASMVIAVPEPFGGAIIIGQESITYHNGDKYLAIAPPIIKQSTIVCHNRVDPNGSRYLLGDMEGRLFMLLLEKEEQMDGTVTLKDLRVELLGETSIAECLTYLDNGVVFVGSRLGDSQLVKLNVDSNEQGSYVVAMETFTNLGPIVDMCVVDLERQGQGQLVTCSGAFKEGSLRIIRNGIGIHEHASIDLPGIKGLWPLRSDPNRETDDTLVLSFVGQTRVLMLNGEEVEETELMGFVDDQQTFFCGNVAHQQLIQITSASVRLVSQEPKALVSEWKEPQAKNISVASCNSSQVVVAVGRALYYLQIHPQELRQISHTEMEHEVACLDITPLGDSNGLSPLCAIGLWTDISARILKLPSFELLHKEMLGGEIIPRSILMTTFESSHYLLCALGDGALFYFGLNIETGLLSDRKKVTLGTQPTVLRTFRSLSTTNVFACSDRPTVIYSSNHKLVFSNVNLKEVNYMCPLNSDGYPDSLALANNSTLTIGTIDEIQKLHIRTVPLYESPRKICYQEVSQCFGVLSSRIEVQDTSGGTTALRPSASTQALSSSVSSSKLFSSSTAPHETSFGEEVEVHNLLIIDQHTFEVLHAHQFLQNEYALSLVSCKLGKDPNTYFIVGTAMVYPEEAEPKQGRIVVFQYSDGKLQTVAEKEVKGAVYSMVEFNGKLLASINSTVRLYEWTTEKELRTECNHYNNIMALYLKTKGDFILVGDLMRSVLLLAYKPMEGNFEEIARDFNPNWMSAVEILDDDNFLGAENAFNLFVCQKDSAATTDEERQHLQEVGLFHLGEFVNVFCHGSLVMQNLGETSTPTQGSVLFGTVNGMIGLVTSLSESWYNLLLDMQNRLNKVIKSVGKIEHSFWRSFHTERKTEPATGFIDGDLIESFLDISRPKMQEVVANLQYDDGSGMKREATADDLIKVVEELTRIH
Experiment: Prolabel quantification of IKZF2 protein levels in 293GT cells
Type: cell-based
Settings: 24 h, 10 μM, 24 h, 293GT cells; read-out: IKZF2 % protein reduction at 10 μM, 24 h
Binary call on inhibition at 10 µM: yes (1) from 70% upward, no (0) beneath that.

Determine whether measured inhibition at 10 µM meets or exceeds 70% for O=C1CCC(N2Cc3cc(C4CCN(Cc5cc6n(n5)CCCC6)CC4)ccc3C2=O)C(=O)N1 (centres unmarked)
no (0)

Determine whether measured inhibition at 10 µM meets or exceeds 70% for CC(C)c1ccc(CN2CCC(c3ccc4c(c3)CN(C3CCC(=O)NC3=O)C4=O)CC2)cc1 (centres unmarked)
yes (1)

***
Determine whether measured inhibition at 10 µM meets or exceeds 70% for O=C1CCC(N2Cc3cc(C4CCN(Cc5ccc6[nH]ncc6c5)CC4)ccc3C2=O)C(=O)N1 (centres unmarked)
yes (1)

Determine whether measured inhibition at 10 µM meets or exceeds 70% for O=C1CCC(N2Cc3cc(C4CCN(Cc5ccc(C(F)F)cc5)CC4)ccc3C2=O)C(=O)N1 (centres unmarked)
yes (1)

Determine whether measured inhibition at 10 µM meets or exceeds 70% for CC(=O)Nc1ccc(CN2CCC(c3ccc4c(c3)CN(C3CCC(=O)NC3=O)C4=O)CC2)cc1 (centres unmarked)
yes (1)

Determine whether measured inhibition at 10 µM meets or exceeds 70% for O=C1CCC(N2Cc3cc(C4CCN(Cc5cccc6c5CCCC6)CC4)ccc3C2=O)C(=O)N1 (centres unmarked)
no (0)

Determine whether measured inhibition at 10 µM meets or exceeds 70% for O=C1CCC(N2Cc3cc(C4CCN(Cc5cc6ccccc6[nH]5)CC4)ccc3C2=O)C(=O)N1 (centres unmarked)
yes (1)

Determine whether measured inhibition at 10 µM meets or exceeds 70% for N#Cc1ccccc1CN1CCC(c2ccc3c(c2)CN(C2CCC(=O)NC2=O)C3=O)CC1 (centres unmarked)
no (0)

Determine whether measured inhibition at 10 µM meets or exceeds 70% for Nc1nc(C(F)(F)F)c(CN2CCC(c3ccc4c(c3)CN(C3CCC(=O)NC3=O)C4=O)CC2)s1 (centres unmarked)
no (0)

Determine whether measured inhibition at 10 µM meets or exceeds 70% for O=C1CCC(N2Cc3cc(C4CCN(Cc5cccc(C(=O)O)c5)CC4)ccc3C2=O)C(=O)N1 (centres unmarked)
no (0)

Determine whether measured inhibition at 10 µM meets or exceeds 70% for O=C1CCC(N2Cc3cc(C4CCN(CC5CC5)CC4)ccc3C2=O)C(=O)N1 (centres unmarked)
no (0)

----------
Target: IKZF1 (Homo sapiens, UniProt Q13422+Q96SW2)
Sequence (Q13422 whole entry): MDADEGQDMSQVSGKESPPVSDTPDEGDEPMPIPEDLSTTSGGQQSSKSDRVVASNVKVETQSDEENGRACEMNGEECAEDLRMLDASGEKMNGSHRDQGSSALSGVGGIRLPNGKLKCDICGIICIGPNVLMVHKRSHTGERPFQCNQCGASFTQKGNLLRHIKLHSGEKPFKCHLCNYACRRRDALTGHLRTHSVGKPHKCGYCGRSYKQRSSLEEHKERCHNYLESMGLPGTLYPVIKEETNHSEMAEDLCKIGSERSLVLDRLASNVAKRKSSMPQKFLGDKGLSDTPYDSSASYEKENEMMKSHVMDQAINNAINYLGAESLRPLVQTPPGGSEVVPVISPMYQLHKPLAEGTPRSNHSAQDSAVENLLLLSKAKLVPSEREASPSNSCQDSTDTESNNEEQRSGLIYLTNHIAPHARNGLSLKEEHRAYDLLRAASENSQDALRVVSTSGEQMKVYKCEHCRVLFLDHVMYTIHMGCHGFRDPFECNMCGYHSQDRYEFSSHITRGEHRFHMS
Sequence (Q96SW2 whole entry): as the sequence (Q96SW2 whole entry) above
Sequence (Q16531 whole entry partner): as the sequence (Q16531 whole entry partner) above
Assay: Prolabel quantification of IKZF1 protein levels in 293GT cells
Type: cell-based
Conditions: Prolabel assay, read-out: IKZF1 EC50
Description: The Prolabel system from DiscoverX was used to develop high-throughput and quantitative assays to measure changes in IKZF1, IKZF2 and GSPT1 protein levels in response to compounds. […] The complementary fragment of beta-galactosidase (from DiscoverX), is added to the prolabel tag to form an active beta galactosidase enzyme whose activity can be precisely measured. In this way, the levels of a fusion protein with the prolabel tag can be quantified in cell lysates. […]
outcome-measure: DC50

Return the recorded DC50 value; entry: O=C1CCC(N2Cc3cc(C4CCN(Cc5ncon5)CC4)ccc3C2=O)C(=O)N1 (stereo not shown)
> 50 µM

Return the recorded DC50 value; entry: O=C1CCC(N2Cc3cc(C4CCN(Cc5csc(-c6ccccc6)n5)CC4)ccc3C2=O)C(=O)N1 (stereo not shown)
0.039 µM

Return the recorded DC50 value; entry: COCc1ccc(CN2CCC(c3ccc4c(c3)CN(C3CCC(=O)NC3=O)C4=O)CC2)cc1 (stereo not shown)
> 30 µM

Return the recorded DC50 value; entry: O=C1CCC(N2Cc3cc(C4CCN(Cc5ccon5)CC4)ccc3C2=O)C(=O)N1 (stereo not shown)
> 50 µM
